Test system: DRAK1;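 also: KINOMEscan scanMAX binding as percent activity remaining versus control; lower means stronger binding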
Construct: gene STK17A
condition_label: Compound Concentration (nM):1000
attribute_measured: Percent Control (%)
Your answer is read as %, so omit the unit and give the number.

Below: 3 compounds and their reported Percent Control.
> print(dat)
                                   compound  assayed.target  observed.value
1  CC(C)COC(=O)c1ccc2c(c1)/C(=C/Nc1ccc(S(N)(=O)=O)cc1)C(=O)N2 [GW416981X]           DRAK1             0.3
2  COc1ccc2[nH]c3c4[nH]c5ccc(OC)cc5c4c4c(c3c2c1)C(=O)NC4=O [GW296115X]           DRAK1             0.4
3  COc1cc(N2CCN(C(C)C)CC2)ccc1Nc1nc(Nc2ccc(F)cc2C(=O)NC[C@@H](O)CO)c2cc[nH]c2n1 [GSK1392956A]           DRAK1              87

Now examine the next entry.
Ask: What Percent Control value was documented for this compound, COc1ccccc1-c1cc(/C=C2\C(=O)Nc3ncc(Br)cc32)cc(Br)c1O [GW442130X] ?
Reply: 85
